- System: NCI-H522
- test protocol: NCI tumour cell line growth inhibition, 48 h
Activity calls are given as the source filed them. No stated cut-off is given here; in the data, active = GI50 up to about 1.1 µM and inactive = higher.
Classes used: active, inactive

- molecule: "O=C(CNc1cccc(Cl)c1)Nn1c(-c2ccccc2)nc2ccccc2c1=O"
  discrete label: "inactive"
- molecule: "COC(=O)C1=C(C(=O)OC)SC2(S1)C(C(=O)OC)=C(C(=O)OC)Sc1c2ss/c1=N\\c1ccc(Cl)cc1"
  discrete label: "active"
- molecule: "CC(=O)OCCOCNC(=S)N/N=C/c1ccc2ccccc2n1"
  discrete label: "inactive"
- molecule: "CCCCC#C[I+]c1ccccc1"
  discrete label: "inactive"
- molecule: "O=C1ON=C2C3CC4CC12CC1(C3)C(=O)ON=C41"
  discrete label: "inactive"
- molecule: "C[N+]1(C)C2Cc3ccccc3C1Cc1ccccc12"
  discrete label: "inactive"
- molecule: "CCOC(=O)C(N=C(c1ccccc1)c1ccccc1)N(C(=O)OC(C)(C)C)C(=O)OC(C)(C)C (stereo not given)"
  discrete label: "inactive"
- molecule: "CCN(CC)C(=O)c1cc([N+](=O)[O-])c(=O)n2c1[nH]c1ccccc12"
  discrete label: "inactive"
- molecule: "COc1cc(CC(C)NC(C)=O)cc(OC)c1 (stereo not given)"
  discrete label: "inactive"
- molecule: "CC(=O)OCC1(CNc2nc(N)ncc2C#N)CC(CCc2ccccc2)C1 (stereo not given)"
  discrete label: "inactive"
- molecule: "Clc1ccc(C(c2ccc(Cl)cc2)N2CCNCC2)cc1"
  discrete label: "inactive"
- molecule: "CC(=O)N(CN1C(=O)CCC1C(=O)O)c1ccccc1Cl (stereo not given)"
  discrete label: "inactive"
- molecule: "CC[C@H](CO)Nc1nc(NCc2ccccc2)c2ncn(C(C)C)c2n1"
  discrete label: "inactive"
- molecule: "CCOC(=O)C1(Cc2ccc3c(c2)CCC3)Cc2cc3c(cc2C1)CCC3"
  discrete label: "inactive"
- molecule: "CC(C)CCC[C@@H](C)[C@H]1CC[C@H]2[C@@H]3CC=C4CC(OCCCCN(O)CCCSC5OC(CO)C(O)C(O)C5O)CC[C@]4(C)[C@H]3CC[C@]12C (stereo not given in full)"
  discrete label: "inactive"
- molecule: "CCOC(=O)/C(=C/c1ccc(OC)c(OC)c1)C(=O)c1ccccc1"
  discrete label: "inactive"
- molecule: "NC(=O)c1csc(C2OC(CO)C(O)C2O)n1 (stereo not given)"
  discrete label: "inactive"
- molecule: "COc1cc2c(c3nc4ccccc4nc13)-c1ccc(SC)c(=O)cc1[C@@H](NC(C)=O)CC2"
  discrete label: "active"
- molecule: "CC(C)C(O)(C(=O)OCN1C(=O)C2C3C=CC(C2C1=O)C1C2C(=O)N(COC(=O)C(O)(C(C)C)C(C)O)C(=O)C2C31)C(C)O (stereo not given)"
  discrete label: "inactive"
- molecule: "COC(=O)[C@]1(c2cc3ccccc3[nH]2)CC2CN(CC(=O)N(C)OC)C1C1OC(C)(C)OC21 (stereo not given in full)"
  discrete label: "inactive"

---

- Tested on: SK-MEL-5
- test protocol: NCI tumour cell line growth inhibition, 48 h
The source made the active and inactive calls. Cut-off read from the data, not from the text of the source: active = GI50 up to about 1.1 µM and inactive = higher.
outcome measure: GI50

- compound: "COc1ccc(/C=C2\\CCC(CCN3CCOCC3)C2=O)cc1 (configuration not stated)"
  target or test system: "SK-MEL-5"
  result: "> 100 µM (inactive)"
- compound: "CCN(CC)CCC(=O)NC1c2ccc(Cl)cc2Oc2c(C)cccc21 (configuration not stated)"
  target or test system: "SK-MEL-5"
  result: "13.3 µM (inactive)"
- compound: "CC(=O)N1C(=O)c2cc3ccccc3cc21"
  target or test system: "SK-MEL-5"
  result: "> 100 µM (inactive)"
- compound: "Cc1ccc(N(C)S(=O)(=O)c2ccccc2)cc1"
  target or test system: "SK-MEL-5"
  result: "67.5 µM (inactive)"
- compound: "O=P1(Cc2ccccc2)N(Cc2ccccc2)[C@@H]2CCCC[C@H]2N1Cc1ccccc1"
  target or test system: "SK-MEL-5"
  result: "1.79 µM (inactive)"
- compound: "CC(=O)N(C(C)=O)n1c(Cc2ccc(C)cc2)nn(C(C)=O)c1=O"
  target or test system: "SK-MEL-5"
  result: "> 100 µM (inactive)"
- compound: "COc1cc(CC(C)NC(C)=O)cc(OC)c1 (configuration not stated)"
  target or test system: "SK-MEL-5"
  result: "> 100 µM (inactive)"
- compound: "Cc1ccc(Oc2ccccc2N)cc1"
  target or test system: "SK-MEL-5"
  result: "7.89 µM (inactive)"
- compound: "CC1CC2OC(=O)C3CC(O)CC(=C23)[C@@]12C[C@@H](c1ccoc1)OC2=O (some centres not stated)"
  target or test system: "SK-MEL-5"
  result: "> 100 µM (inactive)"
- compound: "O=C1CCCCc2cccc(O)c21"
  target or test system: "SK-MEL-5"
  result: "> 100 µM (inactive)"
- compound: "COC(=O)C1=C(C(=O)OC)SC2(S1)C(C(=O)OC)=C(C(=O)OC)Sc1c2ss/c1=N\\c1ccc(Cl)cc1"
  target or test system: "SK-MEL-5"
  result: "1.39 µM (inactive)"
- compound: "O=C1C(c2ccccc2)=[N+]([O-])c2cc([N+](=O)[O-])c(/C(Cl)=C/c3ccccc3)cc21"
  target or test system: "SK-MEL-5"
  result: "20.4 µM (inactive)"
- compound: "Cc1ccccc1NC(=O)CSc1nnc(-c2ccc(/N=C\\c3ccc(Cl)cc3)cc2)o1"
  target or test system: "SK-MEL-5"
  result: "> 100 µM (inactive)"
- compound: "N#CC(C(=O)C(=O)Nc1ccc(Cl)c(Cl)c1)c1ccc(Cl)cc1 (configuration not stated)"
  target or test system: "SK-MEL-5"
  result: "74.8 µM (inactive)"
- compound: "Cc1ccc(/C=N/n2c(=O)[nH]c3ccccc3c2=O)cc1"
  target or test system: "SK-MEL-5"
  result: "> 100 µM (inactive)"
- compound: "O=C(CCc1nnc(S)[nH]1)Nc1cccc(C(F)(F)F)c1"
  target or test system: "SK-MEL-5"
  result: "> 100 µM (inactive)"
- compound: "COc1ccc(C(SCCO)(c2ccc(OC)cc2)c2ccc(OC)cc2)cc1"
  target or test system: "SK-MEL-5"
  result: "12.2 µM (inactive)"
- compound: "O=C1NP23(OCCO2)Oc2ccccc2C3(C(F)(F)F)O1 (configuration not stated)"
  target or test system: "SK-MEL-5"
  result: "> 100 µM (inactive)"
- compound: "COc1ccc(/C=C(\\C#N)c2nc(N)nc(N3N=C(C)CC3(C)C)n2)c(O)c1"
  target or test system: "SK-MEL-5"
  result: "15.2 µM (inactive)"
- compound: "CCN(CCCOc1ccccc1)CCN(CC)CCCOc1ccccc1"
  target or test system: "SK-MEL-5"
  result: "2.22 µM (inactive)"
- compound: "O=C1C(C(O)(C(F)(F)Cl)C(F)(F)Cl)CCCC1C(O)(C(F)(F)Cl)C(F)(F)Cl (configuration not stated)"
  target or test system: "SK-MEL-5"
  result: "> 10 µM (inactive)"
- compound: "Cc1ccc(Nc2nc(NNC(=O)Cc3ccccc3)nc(NNC(=O)c3ccncc3)n2)cc1"
  target or test system: "SK-MEL-5"
  result: "> 10 µM (inactive)"
